- Experiment: Approximate solubility of ivosidenib freebase in 20 solvent systems at RT
- Type: physicochemical
- Setup conditions: organic solvent or mixture, thermodynamic from solid, THF, RT
Measured metric: solubility

Reported solubility for N#Cc1ccnc(N2C(=O)CC[C@H]2C(=O)N(c2cncc(F)c2)[C@H](C(=O)NC2CC(F)(F)C2)c2ccccc2Cl)c1 [ivosidenib] was > 39 mg/mL

----------
- Experiment: Approximate solubility of ivosidenib freebase in 20 solvent systems at RT
- Type: physicochemical
- Setup conditions: organic solvent or mixture, thermodynamic from solid, MeOH, RT
- Experimental: Approximate solubility of ivosidenib freebase was determined in 20 solvent systems at RT. In the experiment, ˜2 mg of ivosidenib was added into a 3-mL glass vial, followed by the addition of corresponding solvent. The solvent was added by 100 μL step wise until the solution was visually clear or a total volume of 2 mL was reached. This solubility information was used to select solvents for the polymorph screening.
Measured metric: solubility

Looking up N#Cc1ccnc(N2C(=O)CC[C@H]2C(=O)N(c2cncc(F)c2)[C@H](C(=O)NC2CC(F)(F)C2)c2ccccc2Cl)c1 , I see its solubility listed as > 47.6 mg/mL

----------
- Experiment: Approximate solubility of ivosidenib freebase in 20 solvent systems at RT
- Type: physicochemical
- Setup conditions: organic solvent or mixture, thermodynamic from solid, 1,4-Dioxane, RT
Measured metric: solubility

solubility recorded for this compound, N#Cc1ccnc(N2C(=O)CC[C@H]2C(=O)N(c2cncc(F)c2)[C@H](C(=O)NC2CC(F)(F)C2)c2ccccc2Cl)c1 , is > 41.6 mg/mL

Source listed as patent US12264148B2.
